Source listed as ChEMBL document CHEMBL3576778.

# System: Enterococcus faecium
# measurementNotes: Antimicrobial activity against daptomycin-resistant Enterococcus faecium ATCC 6569 incubated anaerobically at 37 degC for 48 hrs by agar dilution method
# Type: functional
# cond: ATCC 6569, 48 h
testReadout: MIC

molecule | testReadout | reportedResult
CCCCCCCc1ccc(C(=O)N[C@@H](Cc2c[nH]c3ccccc23)C(=O)N[C@@H](CC(N)=O)C(=O)N[C@@H](CC(=O)O)C(=O)N[C@@H]2C(=O)NCC(=O)N[C@@H](CCCN)C(=O)N[C@H](CC(=O)O)C(=O)N[C@H](C)C(=O)N[C@@H](CC(=O)O)C(=O)NCC(=O)N[C@H](CO)C(=O)N[C@@H]([C@@H](C)CC(=O)O)C(=O)N[C@@H](CC(=O)c3ccccc3N)C(=O)O[C@@H]2C)cc1 | MIC | 4 µg/mL
C[C@H]1NC(=O)C(CC(=O)O)NC(=O)[C@H](CCCN)NC(=O)CNC(=O)[C@@H](NC(=O)[C@H](CC(=O)O)NC(=O)[C@H](CC(N)=O)NC(=O)[C@H](Cc2c[nH]c3ccccc23)NC(=O)CCCCC2CCCCC2)[C@@H](C)OC(=O)[C@H](CC(=O)c2ccccc2N)NC(=O)[C@H]([C@@H](C)CC(=O)O)NC(=O)[C@@H](CO)NC(=O)CNC(=O)[C@H](CC(=O)O)NC1=O (single isomer, unassigned) | MIC | 32 µg/mL
C[C@H]1NC(=O)C(CC(=O)O)NC(=O)[C@H](CCCN)NC(=O)CNC(=O)[C@@H](NC(=O)[C@H](CC(=O)O)NC(=O)[C@H](CC(N)=O)NC(=O)[C@H](Cc2c[nH]c3ccccc23)NC(=O)CCCCCC2CCCCC2)[C@@H](C)OC(=O)[C@H](CC(=O)c2ccccc2N)NC(=O)[C@H]([C@@H](C)CC(=O)O)NC(=O)[C@@H](CO)NC(=O)CNC(=O)[C@H](CC(=O)O)NC1=O (single isomer, unassigned) | MIC | 16 µg/mL

###

Form field: MIC (one value per entry).
# Tested on: Staphylococcus aureus
# measurementNotes: Antimicrobial activity against daptomycin-susceptible Staphylococcus aureus ATCC 29213 incubated anaerobically at 37 degC for 48 hrs by agar dilution method
# Type: functional
# cond: ATCC 29213, 48 h

compound | targetOrTestSystem | valueUnit | MIC
CCCCCOc1ccc(-c2ccc(C(=O)N[C@@H](Cc3c[nH]c4ccccc34)C(=O)N[C@@H](CC(N)=O)C(=O)N[C@@H](CC(=O)O)C(=O)N[C@@H]3C(=O)NCC(=O)N[C@@H](CCCN)C(=O)N[C@H](CC(=O)O)C(=O)N[C@H](C)C(=O)N[C@@H](CC(=O)O)C(=O)NCC(=O)N[C@H](CO)C(=O)N[C@@H]([C@@H](C)CC(=O)O)C(=O)N[C@@H](CC(=O)c4ccccc4N)C(=O)O[C@@H]3C)cc2)cc1 | Staphylococcus aureus | µg/mL | 0.25
CCCCC[C@H]1CC[C@H](C(=O)N[C@@H](Cc2c[nH]c3ccccc23)C(=O)N[C@@H](CC(N)=O)C(=O)N[C@@H](CC(=O)O)C(=O)N[C@@H]2C(=O)NCC(=O)N[C@@H](CCCN)C(=O)N[C@H](CC(=O)O)C(=O)N[C@H](C)C(=O)N[C@@H](CC(=O)O)C(=O)NCC(=O)N[C@H](CO)C(=O)N[C@@H]([C@@H](C)CC(=O)O)C(=O)N[C@@H](CC(=O)c3ccccc3N)C(=O)O[C@@H]2C)CC1 | Staphylococcus aureus | µg/mL | 0.5
CCCCCCSc1ccc(-c2csc(C(=O)N[C@@H](Cc3c[nH]c4ccccc34)C(=O)N[C@@H](CC(N)=O)C(=O)N[C@@H](CC(=O)O)C(=O)N[C@@H]3C(=O)NCC(=O)N[C@@H](CCCN)C(=O)N[C@H](CC(=O)O)C(=O)N[C@H](C)C(=O)N[C@@H](CC(=O)O)C(=O)NCC(=O)N[C@H](CO)C(=O)N[C@@H]([C@@H](C)CC(=O)O)C(=O)N[C@@H](CC(=O)c4ccccc4N)C(=O)O[C@@H]3C)c2)cc1 | Staphylococcus aureus | µg/mL | 8
CCCCCCCCc1ccc(C(=O)N[C@@H](Cc2c[nH]c3ccccc23)C(=O)N[C@@H](CC(N)=O)C(=O)N[C@@H](CC(=O)O)C(=O)N[C@@H]2C(=O)NCC(=O)N[C@@H](CCCN)C(=O)N[C@H](CC(=O)O)C(=O)N[C@H](C)C(=O)N[C@@H](CC(=O)O)C(=O)NCC(=O)N[C@H](CO)C(=O)N[C@@H]([C@@H](C)CC(=O)O)C(=O)N[C@@H](CC(=O)c3ccccc3N)C(=O)O[C@@H]2C)cc1 | Staphylococcus aureus | µg/mL | 0.5
CCCCc1ccc(/C=C(\C)C(=O)N[C@@H](Cc2c[nH]c3ccccc23)C(=O)N[C@@H](CC(N)=O)C(=O)N[C@@H](CC(=O)O)C(=O)N[C@@H]2C(=O)NCC(=O)N[C@@H](CCCN)C(=O)NC(CC(=O)O)C(=O)N[C@H](C)C(=O)N[C@@H](CC(=O)O)C(=O)NCC(=O)N[C@H](CO)C(=O)N[C@@H]([C@@H](C)CC(=O)O)C(=O)N[C@@H](CC(=O)c3ccccc3N)C(=O)O[C@@H]2C)cc1 (single isomer, unassigned) | Staphylococcus aureus | µg/mL | 1
CCCCCCCCCCC(=O)N[C@@H](Cc1c[nH]c2ccccc12)C(=O)N[C@@H](CC(N)=O)C(=O)N[C@@H](CC(=O)O)C(=O)N[C@@H]1C(=O)NCC(=O)N[C@@H](CCCN)C(=O)NC(CC(=O)O)C(=O)N[C@H](C)C(=O)N[C@@H](CC(=O)O)C(=O)NCC(=O)N[C@H](CO)C(=O)N[C@@H]([C@@H](C)CC(=O)O)C(=O)N[C@@H](CC(=O)c2ccccc2N)C(=O)O[C@@H]1C (single isomer, unassigned) | Staphylococcus aureus | µg/mL | 2
CCCCCC12CCC(C(=O)N[C@@H](Cc3c[nH]c4ccccc34)C(=O)N[C@@H](CC(N)=O)C(=O)N[C@@H](CC(=O)O)C(=O)N[C@@H]3C(=O)NCC(=O)N[C@@H](CCCN)C(=O)N[C@H](CC(=O)O)C(=O)N[C@H](C)C(=O)N[C@@H](CC(=O)O)C(=O)NCC(=O)N[C@H](CO)C(=O)N[C@@H]([C@@H](C)CC(=O)O)C(=O)N[C@@H](CC(=O)c4ccccc4N)C(=O)O[C@@H]3C)(CC1)CC2 | Staphylococcus aureus | µg/mL | 0.25
CCCCCCCCCC(=O)N[C@@H](Cc1c[nH]c2ccccc12)C(=O)N[C@H](CC(N)=O)C(=O)N[C@@H](CC(=O)O)C(=O)N[C@@H]1C(=O)NCC(=O)N[C@@H](CCCN)C(=O)N[C@@H](CC(=O)O)C(=O)N[C@H](C)C(=O)N[C@@H](CC(=O)O)C(=O)NCC(=O)N[C@H](CO)C(=O)N[C@@H]([C@H](C)CC(=O)O)C(=O)N[C@@H](CC(=O)c2ccccc2N)C(=O)O[C@@H]1C | Staphylococcus aureus | µg/mL | 0.5
C[C@H]1NC(=O)C(CC(=O)O)NC(=O)[C@H](CCCN)NC(=O)CNC(=O)[C@@H](NC(=O)[C@H](CC(=O)O)NC(=O)[C@H](CC(N)=O)NC(=O)[C@H](Cc2c[nH]c3ccccc23)NC(=O)CCCCCc2ccccc2)[C@@H](C)OC(=O)[C@H](CC(=O)c2ccccc2N)NC(=O)[C@H]([C@@H](C)CC(=O)O)NC(=O)[C@@H](CO)NC(=O)CNC(=O)[C@H](CC(=O)O)NC1=O (single isomer, unassigned) | Staphylococcus aureus | µg/mL | 16
CCCOc1ccc(-c2ccc(C(=O)N[C@@H](Cc3c[nH]c4ccccc34)C(=O)N[C@@H](CC(N)=O)C(=O)N[C@@H](CC(=O)O)C(=O)N[C@@H]3C(=O)NCC(=O)N[C@@H](CCCN)C(=O)N[C@H](CC(=O)O)C(=O)N[C@H](C)C(=O)N[C@@H](CC(=O)O)C(=O)NCC(=O)N[C@H](CO)C(=O)N[C@@H]([C@@H](C)CC(=O)O)C(=O)N[C@@H](CC(=O)c4ccccc4N)C(=O)O[C@@H]3C)cc2)cc1 | Staphylococcus aureus | µg/mL | 0.5
